- Tested on: HepG2 Srxn1-GFP reporter cells (+30 nM CDDO-Me)
- Protocol: Srxn1-GFP intensity median modified Z-score relative to plate median; higher = stronger NRF2 / oxidative stress reporter activation, active = hit call of the paper
- Measurement Setup: 10 µM; exposure time: 24h
The campaign covered roughly 2,300 compounds. About 330 (14%) showed activity.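 Rule for the calls: active = median modified Z-score above 1.96; inactive = 1.96 or below.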 Only a sample is shown.
Parameter call: string, one of active, inactive

[
  {
    "Compound": "COc1ccc(-c2coc3cc(OCC4CC4)ccc3c2=O)cc1",
    "Group": "inactive"
  },
  {
    "Compound": "COc1ccc(-c2oc3cc(OC)c(OC)c(OC)c3c(=O)c2OC)cc1",
    "Group": "inactive"
  },
  {
    "Compound": "OCCc1ccccc1",
    "Group": "inactive"
  },
  {
    "Compound": "N=c1[nH]c(F)nc2c1ncn2[C@@H]1O[C@H](COP(=O)(O)O)[C@@H](O)[C@@H]1O",
    "Group": "inactive"
  },
  {
    "Compound": "CCCc1nc(=N)c(C[n+]2ccccc2C)c[nH]1",
    "Group": "inactive"
  }
]

Query: Assay result, entry `CN(C)CC/C=C1\c2ccccc2Sc2ccc(Cl)cc21` — outcome?
Reply: inactive

Query: I would be grateful if you could indicate the recorded call for N=c1[nH]c(=O)c2c([nH]1)=NCC(CNc1ccc(C(=O)N[C@H](CCC(=O)O)C(=O)O)cc1)N=2 (some centres undefined) .
Reply: inactive

Query: Returns: the outcome recorded for `O=c1oc2ccccc2cc1O` in this assay.
Reply: inactive

Query: For `COc1c(O)cc2oc3cc(O)c(CC=C(C)C)c(O)c3c(=O)c2c1C=CC(C)C` , which call appears in the assay record?
Reply: active

Query: I'd appreciate the recorded outcome for COC1=C(C)C2CC(=O)O[C@@H]3C[C@H]4C(C)=CC(OC)C(=O)[C@]4(C)C(C1=O)[C@]23C (some centres undefined) from this test.
Reply: inactive

Query: What did the test return for N=c1[nH]c2c(c(=O)[nH]1)N(C=O)C(CNc1ccc(C(=O)NC(CCC(=O)O)C(=O)O)cc1)CN2 (centres undefined) ?
Reply: inactive

Query: Record request — test call for COC(=O)C[C@H]1C(C)(C)[C@@H](OC(C)=O)C2CC3C4CC(=O)O[C@@H](c5ccoc5)[C@]4(C)CCC3[C@@]1(C)C2=O (some centres undefined)
Reply: inactive

Query: Tell me the assay call for `N=c1[nH]c(=N)c2nc(-c3ccccc3)c(=N)[nH]c2[nH]1` please.
Reply: inactive
